Cited source: the supplement of paper PMC12855868

B1: library; numbered along this chain (parent)
chain: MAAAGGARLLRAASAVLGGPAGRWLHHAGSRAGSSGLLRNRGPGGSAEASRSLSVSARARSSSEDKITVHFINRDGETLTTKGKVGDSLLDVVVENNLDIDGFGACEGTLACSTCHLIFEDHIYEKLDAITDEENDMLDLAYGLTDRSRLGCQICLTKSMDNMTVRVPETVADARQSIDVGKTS

variants of: B1; assay: scaled log2 fold change in cell abundance, elesclomol vs control (0 = silent mean, 1 = nonsense mean) (scaled log2 ratio); higher = higher viability under elesclomol (loss of FDX1 cuproptosis function); details: with ABC1 FDX1 KO; elesclomol 5 nM; glucose 10 mM; 14 days;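 note: variant abundance is its share of total variant reads in each endpoint sample, from next-generation sequencing of the integrated ORF PCR-amplified out of genomic DNA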
In this section, each of the variants is paired with its reported scaled log2 fold change.
Quantity Name: scaled log2 fold change

In [3]: df
Out[3]:
    mutation_spec  reading
 0          E169W   -0.134
 1           K84F    0.195
 2          L144F   -0.293
 3          L138T  -0.0362
 4          L140K   -0.153
 5           E48M    0.829
 6          Y142D   -0.228
 7          C152G     1.06
 8           D99G       -1
 9          D136I    0.422
10           A59F    0.319
11            R8P    0.109
12          D132S   -0.409
13           V94K   -0.573
14           L25T    0.536
15           E64Q  -0.0857
16          P168S    0.106
17           S63D   -0.272
18          A174Y     0.11
19            A4T    0.364
20          M137Y   -0.108
21           D91M   -0.119
22          L127S    0.442
23          T114F    0.685
24           G22R   -0.188
25          A105Y   -0.576
26           K82V  -0.0519
27          A129P    0.272
28           D87Y    -0.31
29           A49I    0.653
30          T170W  -0.0505
31           H70T   -0.764
